# Test system: HCT-116 colon
# TEST SUMMARY: NCI tumour cell line growth inhibition, 48 h
Exercise: state measured TGI for each of the compounds provided.

Item: COc1ccccc1NCc1nnc(CCCCCCCCc2nnc(CNc3ccccc3OC)o2)o1 | System: HCT-116 colon | TGI: > 100 µM

The recorded TGI with HCT-116 colon for O=C(CSc1nnc(Cc2ccccc2)o1)Nc1ccc(Cl)cc1Cl was > 100 µM

Summary line: CC(=O)c1c(C)cn(S(=O)(=O)NC(=O)Nc2nncs2)c1C , HCT-116 colon, reported TGI = > 100 µM

Entry CCOC(=O)C(NC(=O)c1ccccc1)(Nc1cc(C)on1)C(F)(F)F (stereo not given) under HCT-116 colon had TGI of > 100 µM

Value (TGI, HCT-116 colon) for record Cn1c(N)c(Cc2ccc(Cl)cc2)c(=O)[nH]c1=O = > 100 µM

TGI on HCT-116 colon for C=CC(=O)N1CC2(CCC(n3nc(-c4ccc(Oc5ccccc5)cc4)c4c(N)ncnc43)CC2)C1 is 1.88 µM

The value of TGI recorded for COc1ccc2c3c([nH]c2c1CC=C(C)C)C(=O)C=C(C)C3=O when tested on HCT-116 colon reads > 25 µM

// returns TGI for Cc1nc2ccccn2c1NC(=O)NNC(=S)Nc1ccc(Cl)cc1 with HCT-116 colon; value = > 100 µM

Test item Clc1ccc(-c2ccc(CNCC3CCNCC3)o2)c(-c2ccccc2)c1 ; HCT-116 colon; reported TGI was 2.54 µM

Bench note, HCT-116 colon: CCCOC(=O)c1ccc2c(c1)[N+](=O)C(C(=O)c1ccccc1)=C(C(F)(F)F)[N+]2=O , TGI reads 3.36 µM

// TGI (HCT-116 colon) for Cc1c2ccccc2c(C)n2c1nc1cc3ccccc3cc12 = 2.71 µM

The measured TGI that COC(=O)C1=C(OC(=O)/C(=C/c2ccccc2)c2ccccc2)C(C(=O)OC)[C@@]2(O)[C@@H](C(=O)OC)[C@H](C)C[C@@H]1[C@@H]2C(=O)OC (stereo not given in full) showed for HCT-116 colon is > 100 µM

// returns TGI for C=C1C(=O)c2sccc2C(c2ccc(OC)c(OC)c2)C1COC(C)=O (stereo not given) with HCT-116 colon; value = 10.3 µM

Value (TGI, HCT-116 colon) for record COc1cc2c3c(c1O)N=NC=3CCN=2 = 28.1 µM

Kindly note: HCT-116 colon, COc1ccc(/C=C/C(=O)c2ccc(NC(=O)CSc3nnc(-c4ccc(OC)c(OC)c4)n3-c3ccccc3)cc2)cc1 , TGI value reported: 2.66 µM

Form: item Cc1cn(C(=O)NC23CC4CC(CC(C4)C2)C3)c(=O)[nH]c1=O ; test system HCT-116 colon; TGI: > 100 µM

Per the reported HCT-116 colon data, COC(=O)c1cc(CC2Cc3cc4c(cc3C2)CCC4)cc2c1CCC2 has TGI of > 100 µM

Let me check: CC(=O)c1ccc(NC(=O)/C(CC(=O)/C=C/c2ccccc2)=N/NC(N)=S)cc1 , system HCT-116 colon, measured TGI is > 100 µM

For COc1ccc2c3ccc4c(c3n(C)c2c1)C(=O)C=CC4=O on HCT-116 colon, measured TGI was 48.4 µM

TGI on HCT-116 colon for O=C(O)CCC(N=C(C(=NC(CCC(=O)O)C(=O)O)c1ccccc1)c1ccccc1)C(=O)O (stereo not given) is > 100 µM

The observed TGI for O=c1ccn(C2OC(CN(O)CCC3C(O)C(CO)OC3n3ccc(=O)[nH]c3=O)C(O)C2O)c(=O)[nH]1 (stereo not given) when tested with HCT-116 colon stands at > 100 µM

Entry O=C(/C=C/c1cccc2ccccc12)c1ccccc1 , tested on HCT-116 colon, has a reported TGI of 24.1 µM

// TGI (HCT-116 colon) for OC1(c2ccccc2)CSc2ncnn21 (stereo not given) = > 100 µM

HCT-116 colon assay, compound CCOC(=O)Nn1cnnc1C , recorded TGI = > 100 µM

Record for CC(C)(C)N1C(=O)N=[N+](/C(=C(\c2ccccc2)n2nc([O-])n(C(C)(C)C)c2=O)c2ccccc2)C1=O under target or system HCT-116 colon: TGI reported as > 100 µM

Response field TGI (HCT-116 colon) for item CC(C)C(O)(C(=O)OCN1C(=O)C2C3C=CC(C2C1=O)C1C2C(=O)N(COC(=O)C(O)(C(C)C)C(C)O)C(=O)C2C31)C(C)O (stereo not given) : > 100 µM

Per the reported HCT-116 colon data, C=C(CN1CCc2ccccc2C1)c1ccc(CCC(=O)Nc2ccccc2N)cc1 has TGI of 32.4 µM

Result for Cc1ccc(-c2c(C#N)c(-c3ccccc3)c(C#N)c(=O)n2NS(=O)(=O)c2ccc(C)cc2)cc1 , tested on HCT-116 colon, TGI: > 100 µM

Short answer on HCT-116 colon for COC(=O)C(C(=O)C(=O)Nc1nc(=S)[nH][nH]1)c1csc(N)n1 (stereo not given) , TGI: > 100 µM

The reported HCT-116 colon TGI of C=C1CCC(O)C/C1=C/C=C1\CCCC2(C)C1CCC2C(C)CCCC(C)C (stereo not given) is 28.5 µM

Sample O=C(NNc1cn[nH]c(=O)n1)c1cccc2nc3ccccc3nc12 , system: HCT-116 colon. Its TGI is > 100 µM

Assay HCT-116 colon, sample O=C1Cc2c([nH]c3ccc(Cl)cc23)-c2ccccc2N1 , TGI read: > 100 µM

GET /values?item= COc1ccc(C(O)c2cc3c(N)c(C(=O)Nc4ccc(Br)cc4)sc3nc2C)cc1 (stereo not given) &system= HCT-116 colon returns TGI: 11.3 µM

Value (TGI, HCT-116 colon) for record C[Si](C)(C)/N=C1\N2C(=NC1(C(F)(F)F)C(F)(F)F)Sc1ccccc12 = > 50 µM

Reported HCT-116 colon TGI for item COc1cc(/C=C2\N=C(c3ccccc3)N(c3cc4cc(Sc5ccccc5)ccc4[nH]3)C2=O)cc(OC)c1OC was 23.9 µM

The reported HCT-116 colon TGI of Cc1nc(Nc2ccc(Cl)cc2Cl)sc1C(=O)Nc1ccccc1 is > 100 µM

Fill in: HCT-116 colon TGI for CCN(CC)S(=O)(=O)c1ccc2nc(NC(=O)OC)[nH]c2c1 = > 100 µM

Noted TGI for CC(=O)Oc1ccc(/C=C/C(=O)NCC(NC(=O)/C=C/c2ccc(OC(C)=O)c(OC(C)=O)c2)C(=O)O)cc1OC(C)=O (stereo not given) , tested on HCT-116 colon: > 100 µM

Item O=C(CC(=O)Nc1ccc(C(=O)O)cc1)Nc1ccc(C(=O)O)cc1 ; assay system HCT-116 colon; TGI reported as > 100 µM

The compound C[C@]12CC[C@@H]3c4ccc(O)cc4CC[C@H]3[C@@H]1CC[C@@H]2NS(=O)(=O)c1cccc(OC(F)(F)F)c1 , when measured on HCT-116 colon, yielded TGI of 3.53 µM

* * *

I'd appreciate it if you could supply TGI values for the items below.
# Tested on: DU-145 prostate
# TEST SUMMARY: NCI tumour cell line growth inhibition, 48 h

So for Cc1nc(Nc2ccc(Cl)cc2Cl)sc1C(=O)Nc1ccccc1 , the logged TGI turned out to be > 100 µM

TGI measured on O=C(O)C(C(C(=O)O)P(=O)(O)O)P(=O)(O)O (stereo not given) = > 100 µM

Looking up CC1c2ccccc2Cn2cc3c(c21)C(=O)c1cccc(OP(=O)(O)OCc2ccccc2)c1C3=O (stereo not given) , I found its TGI recorded as > 100 µM

Sure, the documented TGI for COC12COC(=O)C1C(c1ccc3c(c1)OCO3)c1cc3c(cc1O2)OCO3 (stereo not given) is > 93.5 µM

Note to self: TGI recorded for O=C(NNc1cn[nH]c(=O)n1)c1cccc2nc3ccccc3nc12 was > 100 µM

Reported TGI ( COc1ccc(C2C(C#N)=C(N)Oc3c2sc2c(C)cccc32)cc1 (stereo not given) ) = 18.6 µM

Kindly note the recorded TGI for CCc1nc(N)nc(N)c1-c1ccc2c(c1)nnn2CCc1ccccc1 , which is > 65.2 µM

Lab note: measured TGI of Cc1cc2nc3c4cc(C=O)ccc4n(CCN(C)C)c3nc2cc1C was 10.6 µM

TGI reported for this molecule COC(=O)/C=C1/SC(=Nc2ccc(C(F)(F)F)cc2)N(CCc2c[nH]c3ccc(O)cc23)C1=O : > 100 µM

Entry under test: COc1cc(/C=C2/SC(c3ccccc3)N(c3cc(Cl)ccc3Cl)C2=O)cc(OC)c1OC (stereo not given) . Its TGI was > 100 µM

* * *

# System: NCI-H460 lung
# TEST SUMMARY: NCI tumour cell line growth inhibition, 48 h
READOUT NAME: TGI

Record summary for Nc1nonc1-c1nc2cnccc2n1C1CCCCC1 : reported TGI = > 25 µM

The recorded TGI for entry COc1cc(C2C(C(=O)O)=C(CO)Oc3cc4c(cc32)OCO4)cc(OC)c1OC (configuration not stated) equals > 100 µM

Record summary for CCOC(=O)Cc1cc(=O)oc2cc(O)ccc12 : reported TGI = > 100 µM

Reported TGI of CC(C)(C)N1C(=O)N=[N+](/C(=C(\c2ccccc2)n2nc([O-])n(C(C)(C)C)c2=O)c2ccccc2)C1=O : > 100 µM

Memo: COCP1(=S)OC(C)CCN1C(C)C (configuration not stated) , reported TGI: > 100 µM

TGI reported for this compound Cc1ccc2cc3c(N)c4c(C)ccc(C)c4nc3nc2c1 : 3.77 µM

TGI reported for this compound CC1=CP(=O)(OC(C)C)CC(C)=C1Cl (configuration not stated) : > 100 µM

TGI in this record for O=c1[nH]cnc2[nH]cc(CN3CCCCC3)c12 : 43.8 µM

Item: COc1ccc(C(=O)Cc2ccc(Cl)cc2)cc1OC | TGI: > 100 µM

Sample C=C1CC(Cn2cc(C)c(=O)[nH]c2=O)(c2ccc(Cl)cc2)OC1=O (configuration not stated) ; TGI observed: 36.1 µM

Field TGI (entry Brc1ccc2c(C3CN[C@@H](c4c[nH]c5cc(Br)ccc45)CN3)c[nH]c2c1 (some centres not stated) ) reads 3.85 µM

Value of measured TGI for the entry CCOC(=O)C1=CC(C)(C(=O)OCC)Nc2c(nc(SC)[nH]c2=O)N1 (configuration not stated) : > 10 µM
